protocol: Evaluation for the inhibition of delta opioid binding to bovine striatal membranes by the affinity ligand 0.2 nM [3H]p-Cl-DPDPE
measured endpoint: IC50 (nM)
A number alone suffices; assume nM.

Please give the measured IC50 for this compound: `CN1CC[C@]23c4c5ccc(O)c4O[C@H]2C(=O)CC[C@@]3(NC(=O)CS)C1C5` 12
